assay: Acute Toxicity in Mice; type: in vivo; conditions: mouse, in vivo, ip; 200 mg/kg i.p.; death rate recorded 9 days after treatment
measureName: mortality at 216 h (%)
Please state the figure in %; there is no need to write the unit.

See these solved cases before continuing.
[[record]]
compound = "CN1CC(c2cc3ccccc3o2)CC1=NCCO (stereo not shown) [Example 11]"
unitannotation = "%"
measurednumber = 80

[[record]]
compound = "COc1ccc(CCN=C2CCCN2C)cc1OC [Compound A, reference compound]"
unitannotation = "%"
measurednumber = 60

[[record]]
compound = "COc1ccc(CCN=C2CC(c3ccccc3)CN2C)cc1OC (stereo not shown) [Example 4]"
unitannotation = "%"
measurednumber = 100


As a next step, examine the compound that follows.
Entry CN1CC(c2ccccc2)CC1=NCCOc1ccccc1 (stereo not shown) [Example 3] , mortality at 216 h reported as 0

This collection of values is drawn from patent US4556674A.
